# protocol.description: NCI Yeast Anticancer Drug Screen. Data for the mlh1 rad18 strain (AID 175)
# measurement.context: S. cerevisiae mlh1 rad18 strain growth inhibition; at 5.0 µM (retest, dose inferred, filed as 0.5)
# Procedure: Growth inhibition of yeast strains with defined genetic alterations is measured as a screen for potential anti-cancer activity. Selected strains with alterations in DNA damage repair or cell cycle control were exposed to compounds and growth inhibition was measured relative to vehicle treated controls. The strain used in this assay is mlh1 rad18
The panel holds about 79,000 compounds, 15% with a hit somewhere; the sample as a whole holds those more often. Calls of active or inactive are those of the source. Cut-off read from the data, not from the text of the source: active = growth inhibition above about 70%; inactive = the rest.
Possible outcomes: yes for active, no for inactive

# compound, group.label
records = [
    ("O=C(N=Nc1c(O)[nH]c2ccccc12)C(O)(c1ccccc1)c1ccccc1", "no"),
    ("CC(C)c1cccc2sc(NC(=O)C(=O)C(C#N)c3cccc4ccccc34)nc12 (stereo not given)", "no"),
    ("CN(C)c1ccc(/C=C2/Oc3ccc(Cl)cc3C2=O)cc1", "no"),
    ("O=C(Nc1ccccc1)c1ccc([N+](=O)[O-])o1", "no"),
    ("CCCCCCCCCCn1cc[nH]c1=S", "no"),
    ("CCCCCCC/C=C/C(=O)OC1C(OC2C(OC(CCCCCCC)CC(=O)OC(CCCCCCC)CC(=O)O)OC(C)C(O)C2O)OC(C)C(O)C1O (stereo not given)", "no"),
    ("Cc1c(Cl)ccc2c(C(O)CNCc3ccccc3)cc(-c3ccc(Cl)cc3)nc12 (stereo not given)", "no"),
    ("O=[N+]([O-])c1ccc(O)c(/C=N\\NC(=S)Nc2ccc3cn[nH]c3c2)c1", "no"),
    ("CC(C)c1ccc(O)c(O)c(=O)c1 (tested in a mixture with another compound)", "yes"),
    ("OC1C2CCC1C1C3C=CC(C3)C21 (stereo not given)", "no"),
]

---

Reported growth inhibition values for a set of compounds
# protocol.description: NCI Yeast Anticancer Drug Screen. Data for the cln2 rad14 strain (AID 165);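 note: 0% = growth equal to vehicle treated cultures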
# measurement.context: S. cerevisiae cln2 rad14 strain, at 50.0 µM, hits give high values
Compounds without any hit were thinned out: in the full panel of roughly 79,000, 15% have a hit.
observable: growth inhibition (%)

# compound, observable, output.unit, readout.value
rows = [
    ("CC(=O)N(O)c1ccc2c(c1)Cc1cc(F)ccc1-2", "growth inhibition", "%", 92.5),
    ("CCOC(=O)NC(=S)Nc1ccsc1", "growth inhibition", "%", 56.8),
    ("C=C1CC2(CCCC3(CC(=C)C(=O)O3)C2(C)C)OC1=O (stereo unspecified)", "growth inhibition", "%", 23.1),
    ("COc1ccccc1NC(=O)C1=C(C)NC(C)=C(C(=O)Nc2ccccc2OC)C1c1ccc(C2C(C(=O)Nc3ccccc3OC)=C(C)NC(C)=C2C(=O)Nc2ccccc2OC)cc1", "growth inhibition", "%", 44.2),
    ("c1ccc(-n2ncc3ccc4cccn4c32)cc1", "growth inhibition", "%", 13.1),
    ("O=[N+]([O-])c1ccc(SCc2ccccc2)c2nonc12", "growth inhibition", "%", 88.9),
    ("O=C(O)c1c(-c2ccccc2)cc(-c2ccccc2)cc1-c1ccccc1", "growth inhibition", "%", 97.8),
    ("Cc1cc(C)nc(CCSS(=O)(=O)O)c1", "growth inhibition", "%", 0.65),
    ("Cc1ccc2cc3ccccc3c(-c3ccccc3)c2c1", "growth inhibition", "%", 37),
    ("Oc1ccc2c(c1)OCC1c3ccccc3OC21 (stereo unspecified)", "growth inhibition", "%", 50.1),
    ("Cc1ccc(NC(=S)N(CCC#N)C2CCCCC2)cc1C", "growth inhibition", "%", 0.5),
]
